Tested on: Hepatitis C virus
Assay: Antiviral activity against HCV by HCVSPF-CY1B assay
Assay type: functional, organism-based, Hepacivirus hominis
ATTRIBUTE_MEASURED: pEC50
Quick note: pEC50 values are minus log10 of concentrations in mol/L.

Param item = CCOc1cc(O[C@@H]2C[C@H]3C(=O)N[C@]4(C(=O)NS(=O)(=O)C5CC5)C[C@H]4/C=C/CC[C@@H]4CC4[C@H](NC(=O)c4ccn(C)n4)C(=O)N3C2)ccn1 (stereo partly specified) ; retrieve measured pEC50.
7.47
